B1: library; numbered along this chain (parent)
chain: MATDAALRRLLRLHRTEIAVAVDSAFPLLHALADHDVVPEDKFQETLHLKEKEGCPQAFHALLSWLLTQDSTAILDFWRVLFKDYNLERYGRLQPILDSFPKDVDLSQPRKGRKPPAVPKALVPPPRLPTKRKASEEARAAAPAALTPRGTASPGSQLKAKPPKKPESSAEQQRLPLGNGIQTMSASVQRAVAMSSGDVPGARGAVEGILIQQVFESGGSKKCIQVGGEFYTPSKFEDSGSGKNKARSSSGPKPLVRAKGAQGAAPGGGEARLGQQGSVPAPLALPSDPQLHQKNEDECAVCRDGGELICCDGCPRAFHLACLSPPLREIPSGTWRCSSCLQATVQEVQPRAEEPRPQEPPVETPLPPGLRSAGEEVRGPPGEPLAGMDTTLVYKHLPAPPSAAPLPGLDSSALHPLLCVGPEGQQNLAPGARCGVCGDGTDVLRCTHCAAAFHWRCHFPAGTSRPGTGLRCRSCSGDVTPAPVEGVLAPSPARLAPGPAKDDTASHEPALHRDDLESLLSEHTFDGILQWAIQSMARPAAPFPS

variants of: B1; assay: AIRE transcriptional activation functional score (insulin promoter-GFP; nonsense median 0, synonymous median 1) (normalised score); higher = higher AIRE activity (more reporter activation); details: with insulin promoter-GFP reporter in HEK293
Exercise: for every item that follows, state its recorded AIRE transcriptional activation functional score.
Numbers only.

// solved cases for AIRE transcriptional activation functional score follow
sequenceVariant: S99V
val: 0.813

sequenceVariant: N179P
val: 1.71

sequenceVariant: P361Q
val: 1.18

sequenceVariant: E296H
val: 1.76

sequenceVariant: P384W
val: 1.61

sequenceVariant: R445H
val: 0.423

Prompt: Can you share its AIRE transcriptional activation functional score? I mean this variant: P115Q
Response: 1.01

Data origin, for the record: the supplement of paper PMC12667976
